# System tested: T1, histidine-tagged soluble human CD33 (hCD33-His) (human, UniProt P20138 18-259)
# T1 construct: Human CD33 extracellular region with six histidines at the C-terminus, made in CHO/DG44 cells
# T1 sequence (P20138 other isoform, or with tags, fused parts or gaps limits assumed): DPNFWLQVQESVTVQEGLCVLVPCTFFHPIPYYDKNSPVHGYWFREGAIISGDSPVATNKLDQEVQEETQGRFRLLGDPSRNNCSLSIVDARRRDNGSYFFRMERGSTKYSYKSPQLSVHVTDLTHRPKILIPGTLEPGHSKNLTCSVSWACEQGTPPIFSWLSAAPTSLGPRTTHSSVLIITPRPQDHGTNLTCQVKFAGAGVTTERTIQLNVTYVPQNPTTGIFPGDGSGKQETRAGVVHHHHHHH
# Assay protocol: SPR (Biacore T-100), antibody captured on anti-human IgG, hCD33-His as analyte
Experimental endpoint: binding result

modified CD33 chimeric antibody ver.3 (antibody, V domains shown) VH: QLQETGPGLVKPSQSLSLTCSVTGYTITSGYEWTWIRKFPGNRMEWMGYIQSSGSTDYNPSLKSRVSITRDTSKNQFFLQLNSVTTEDTATYFCTRWDRWGPGVMVTVSS VL: DVVLTQTLVAQPVRLGDQASISCRSSQSLVHSDGHTYLEWYLQKPGQSPQLLIYEISNRFSGVPDRFSGSGSGSDFTLKISRVEPEDLGLYYCFQGTHDLPTFGGGTKLELK :: binds
